# Tested on: Nucleoside hydrolase NH36 of L. (L.) donovani
# Assay type: biochemical, Leishmania (L.) donovani
# testContext: substrate of NH36; 25°C, 50 mM Hepes pH 7.4
# Description: BL21DE3 E.coli were transformed with the synthetic plasmid pET 28b encoding the gene of NH36 of Leishmania (L.) donovani (EMBL, Genbank and DDJB data bases, access number AY007193) with a His6tag at the C-terminal. Expression was induced with 0.5 mM IPTG and overnight incubation at 20°C. Purification of NH36 was performed on a column of Ni-NTA Superflow resin (Qiagen, USA) eluted by a stepwise imidazole gradient and monitored by SDS-polyacrylamide gel electrophoresis and protein assay. […]
Listing of recorded K m by entry.

Examples with their reported K m follow.
{"columns": ["compound", "systemTested", "K m"],
 "data": [
  ["O=c1[nH]cnc2c1ncn2[C@@H]1O[C@H](CO)[C@@H](O)[C@H]1O [Inosine]", "Nucleoside hydrolase NH36 of L. (L.) donovani", "340 ± 30 µM"],
  ["Nc1nc2c(ncn2[C@@H]2O[C@H](CO)[C@@H](O)[C@H]2O)c(=O)[nH]1 [Guanosine]", "Nucleoside hydrolase NH36 of L. (L.) donovani", "380 ± 153 µM"],
  ["Nc1ccn([C@@H]2O[C@H](CO)[C@@H](O)[C@H]2O)c(=O)n1 [Cytidine]", "Nucleoside hydrolase NH36 of L. (L.) donovani", "1,403 ± 282 μM"],
  ["Nc1ncnc2c1ncn2[C@@H]1O[C@H](CO)[C@@H](O)[C@H]1O [Adenosine]", "Nucleoside hydrolase NH36 of L. (L.) donovani", "70 ± 30 µM"]
]}

The value of K m recorded for O=c1ccn([C@@H]2O[C@H](CO)[C@@H](O)[C@H]2O)c(=O)[nH]1 [Uridine] when tested on Nucleoside hydrolase NH36 of L. (L.) donovani reads 2,100 ± 561 μM

###

# System: L. (L.) amazonensis promastigotes
# assayMethodText: In vitro growth of promastigotes in FBS supplemented Schneider's insect medium
# Assay type: cell-based, Leishmania (L.) amazonensis
# testContext: Leishmania amazonensis; 500 μM, after 96 h of culture; read-out: percent inhibition on L. (L.) amazonensis replication
quantityName: inhibition at 500 µM (%)
Answer in %, number only, no unit symbol.

The cases that follow already have their inhibition at 500 µM on record.
{"columns": ["molecule", "systemTested", "reported"],
 "data": [
  ["Nc1ncnc2c(CN3C[C@H](CO)[C@@H](O)C3)c[nH]c12", "L. (L.) amazonensis promastigotes", 16],
  ["Nc1ncnc2c(CNC(CO)CO)c[nH]c12", "L. (L.) amazonensis promastigotes", 71],
  ["O=c1[nH]cnc2c(CN3C[C@H](CO)[C@@H](O)C3)c[nH]c12", "L. (L.) amazonensis promastigotes", 89],
  ["O=c1[nH]cnc2c(CNC(CO)CO)c[nH]c12", "L. (L.) amazonensis promastigotes", 71],
  ["Nc1ncnc2c(C3N[C@H](CO)[C@@H](O)[C@H]3O)c[nH]c12 (stereo partly drawn)", "L. (L.) amazonensis promastigotes", 76]
]}

Next:
# inhibition at 500 µM of `Nc1nc2c(CN3C[C@H](CO)[C@@H](O)C3)c[nH]c2c(=O)[nH]1` = 67
